Overview of reported pIC50 across a group of compounds:
# Tested on: U937 cells (human monocytic cell line)
# assay.notes: Pam2CSK4-induced TNF-α secretion inhibition in PMA-differentiated U937 cells
# Assay type: cell-based
# condition.details: U-937, U937 cells differentiated with PMA, read-out: TNF-α production inhibition grade (IC50)
# Description: To evaluate anti-inflammatory efficacy, U937 cells (human monocytic cell line) were differentiated into macrophages using PMA (phorbol 12-myristate 13-acetate) and then induced an inflammatory response with Pam2CSK4 (Pam2CysSerLys4) or BzATP (2′(3′)—O-(4-Benzoylbenzoyl)adenosine 5′-triphosphate), the efficacy of taurine-bile acid derivatives in suppressing inflammatory cytokine (IL-1β, TNF-α) production was measured. […]
pIC50: −log10 of the molar value.

1. C[C@H](CCC(=O)N(CCS(=O)(=O)O)C1CCOCC1)[C@H]1CC[C@H]2[C@@H]3[C@H](O)C[C@@H]4C[C@H](O)CC[C@]4(C)[C@H]3C[C@H](O)[C@]12C
6.00 to 6.30
2. C[C@H](CCC(=O)N(CCS(=O)(=O)O)Cc1cccnc1)[C@H]1CC[C@H]2[C@@H]3CC[C@@H]4C[C@H](O)CC[C@]4(C)[C@H]3CC[C@]12C
≤ 5.70
3. CC[C@H]1[C@@H](O)[C@@H]2[C@H](C[C@H](O)[C@]3(C)[C@@H]([C@H](C)CCC(=O)N[C@H](C)CS(=O)(=O)O)CC[C@@H]23)[C@@]2(C)CC[C@@H](O)C[C@@H]12
6.00 to 6.30

Exercise: Form field: reported pIC50 of C[C@H](CCC(=O)NCCN1CCOCC1)[C@H]1CC[C@H]2[C@@H]3CC[C@@H]4C[C@H](O)CC[C@]4(C)[C@H]3C[C@H](O)[C@]12C
Key: ≤ 5.70

Exercise: Need pIC50, item CC[C@H]1[C@@H](O)[C@@H]2[C@H](C[C@H](O)[C@]3(C)[C@@H]([C@H](C)CCC(=O)N(CCS(=O)(=O)O)C4CCOCC4)CC[C@@H]23)[C@@]2(C)CC[C@@H](O)C[C@@H]12
Key: 6.00 to 6.30

Exercise: Recorded pIC50 for C[C@H](CCC(=O)N(C)CCS(=O)(=O)O)[C@H]1CC[C@H]2[C@@H]3CC[C@@H]4C[C@H](O)CC[C@]4(C)[C@H]3CC[C@]12C , please?
Key: 5.70 to 6.00

Exercise: Report pIC50 for C[C@H](CCC(=O)N1CC[C@H](S(=O)(=O)O)C1)[C@H]1CC[C@H]2[C@@H]3CC[C@@H]4C[C@H](O)CC[C@]4(C)[C@H]3C[C@H](O)[C@]12C please.
Key: > 6.30

Exercise: Which pIC50 reading was recorded for the compound C[C@H](CCC(=O)NCCOS(=O)(=O)O)[C@H]1CC[C@H]2[C@@H]3CC[C@@H]4C[C@H](O)CC[C@]4(C)[C@H]3CC[C@]12C ?
Key: 6.00 to 6.30

Exercise: Field request: pIC50 | item: C[C@H](CCC(=O)N1CCC[C@@H]1CS(=O)(=O)O)[C@H]1CC[C@H]2[C@@H]3CC[C@@H]4C[C@H](O)CC[C@]4(C)[C@H]3C[C@H](O)[C@]12C
Key: ≤ 5.70

Exercise: Can you look up the measured pIC50 of CC[C@H]1[C@@H](O)[C@@H]2[C@H](C[C@H](O)[C@]3(C)[C@@H]([C@H](C)CCC(=O)N[C@H](CC(C)C)CS(=O)(=O)O)CC[C@@H]23)[C@@]2(C)CC[C@@H](O)C[C@@H]12 for me?
Key: ≤ 5.70
